target: T1, bacterially produced human IL-6 (human, UniProt P05231 30-212); test: SPR; purified Fab over biotinylated IL-6 on streptavidin chip
T1 construct: also called bactIL-6; prokaryotic IL-6
List of koff values.

Answered examples (3):
| binder | reported-result |
| --- | --- |
| Fab 18F8 (Fab, V domains shown, Fab) VH: EVQLVESGGGLVQPGGSLRLSCAASGFTFSRNAMSWVRQAPGKGLEWVSAINSGGGSTSYADSVKGRFTISRDNAKNTLYLQMNSLKPEDTAVYYCAKEGYTGWKDPMYDYWGQGTQVTVSS VL: QSALTQPSALSVTLGQTAKITCQGGSLGSRYAHWYQQKPGQAPVLVIYDDDSRPSGIPERFSGSSSGGRATLTISGAQAEDEGDYYCQSADTSEHIVFGGGTHLTVLG | 0.000784 s⁻¹ |
| Fab 18C11 (Fab, V domains shown, Fab) VH: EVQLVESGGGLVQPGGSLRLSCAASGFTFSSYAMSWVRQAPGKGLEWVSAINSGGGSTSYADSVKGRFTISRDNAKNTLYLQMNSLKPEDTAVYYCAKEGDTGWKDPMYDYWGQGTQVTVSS VL: QSVVTQPSALSVTLGQTAKITCQGGGLRSSYAHWYQQKPGQAPVLVIYDDDSRPSGIPERFSGSSSGGRATLTISGAQAEDEGDYYCQSADSSGNAAVFGGGTHLTVLG | 0.000784 s⁻¹ |
| Fab 28C6 (Fab, V domains shown, Fab) VH: QVQLVESGGGLVQPGGSLRLSCAASGFTFSNYYMTWVRQAPGKGLEWVSSIYSFSGDTAYADSVKGRFTISRDNAKNTLYLQMNKLKSEDTAVYYCTRDLGGVVVTANGYDYWGQGTQVTVSS VL: DIVMTQTPSSLSASLGDRVTITCQASQSISTELSWYQQKPGQTPKLLIYGASRLQTGVPARFSGSGSGTSFTLTISGLEAEDLATYYCLQDYSWPYSFGSGTRL | 0.0025 s⁻¹ |

GET /value?item= Fab 20A4 (Fab, V domains shown, Fab) VH: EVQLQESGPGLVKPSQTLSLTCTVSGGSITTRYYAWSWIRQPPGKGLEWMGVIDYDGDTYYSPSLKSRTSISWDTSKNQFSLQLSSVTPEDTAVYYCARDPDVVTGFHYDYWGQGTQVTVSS VL: LNFMLTQPPSVSGTLGKTVTISCAGTSSDIGGYNYVSWYQQLPGTAPKLLIHRVSTRASGIPDRFSGSKSGNTASLTISGLRSEDEANYYCASYRNFNNAVFGGGTQLTVLG &field=koff returns 0.00168 s⁻¹
